Recorded values, source paper PMC5540273.

tested on: RSK1(Kin.Dom.2-C-terminal); construct: gene RPS6KA1; settings: concentration: 1 μM, replicates: in singlicate; n = 1;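 further: KINOMEscan kinase panel screen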
Flag rule - %Inh less than 8% flags satisfied; the remaining entries get not satisfied.

Say whether its %Inh is strictly beneath 8%. Entry: Cl.O=S(=O)(c1cccc(F)c1)c1ccc(Nc2ncnc3cc(Br)sc23)cc1Cl
not satisfied

Say whether its %Inh is strictly beneath 8%. Entry: CN1CCC(n2cnc(-c3ccc(F)cc3)c2-c2ccnc(NC3CCNCC3)n2)CC1
not satisfied

Say whether its %Inh is strictly beneath 8%. Entry: Cc1cc(N2CCC(NS(=O)(=O)c3ccc(F)cc3)CC2)nc(Nc2cccc(C#N)c2)n1.O=C(O)C(F)(F)F
satisfied

Say whether its %Inh is strictly beneath 8%. Entry: Cl.c1ccc(Cn2ccc3cc(Nc4ncnc5ccccc45)ccc32)cc1
not satisfied

Say whether its %Inh is strictly beneath 8%. Entry: FC(F)(F)c1ccc(-c2cc(-c3c[nH]nc3-c3ccccn3)ccn2)cc1
satisfied

Say whether its %Inh is strictly beneath 8%. Entry: FC(F)(F)c1ccc(-c2nn3ncccc3c2-c2ccnc(Nc3cccc(C(F)(F)F)c3)n2)cc1
satisfied

Say whether its %Inh is strictly beneath 8%. Entry: Cc1cccc(-c2nc(Nc3ccc4[nH]nnc4c3)c3ccccc3n2)n1
not satisfied

Say whether its %Inh is strictly beneath 8%. Entry: CN1c2ccc(-c3ccc(C(=O)NCCO)cc3)cc2-c2[nH]ncc2S1(=O)=O
not satisfied

Say whether its %Inh is strictly beneath 8%. Entry: COc1cc2ncnc(Nc3ccc(OCc4ccccc4Br)c(Cl)c3)c2cc1OC.Cl
satisfied

Say whether its %Inh is strictly beneath 8%. Entry: COc1ccc(Nc2nccc(N3CCC(NC(=O)c4cccc(NC(C)=O)c4)C3)n2)cc1 (centres unmarked)
satisfied

Say whether its %Inh is strictly beneath 8%. Entry: Cc1ccc(NC(=O)c2cccc(C#N)c2)cc1-c1ccc(C(=O)Nc2ccncc2)cc1
satisfied

Say whether its %Inh is strictly beneath 8%. Entry: O=C(Nc1ccccc1F)NC1CCN(c2ccnc(Nc3ccc(F)cc3)n2)C1 (centres unmarked)
satisfied

Say whether its %Inh is strictly beneath 8%. Entry: N#Cc1ccc(Oc2ccc(Nc3ncnc4cc[nH]c34)cc2Cl)cc1
not satisfied
